The values you see were collected from paper PMC2951136.

Measured target: human dopamine transporter (hDAT) (Homo sapiens, UniProt Q01959)
Sequence (Q01959 whole entry): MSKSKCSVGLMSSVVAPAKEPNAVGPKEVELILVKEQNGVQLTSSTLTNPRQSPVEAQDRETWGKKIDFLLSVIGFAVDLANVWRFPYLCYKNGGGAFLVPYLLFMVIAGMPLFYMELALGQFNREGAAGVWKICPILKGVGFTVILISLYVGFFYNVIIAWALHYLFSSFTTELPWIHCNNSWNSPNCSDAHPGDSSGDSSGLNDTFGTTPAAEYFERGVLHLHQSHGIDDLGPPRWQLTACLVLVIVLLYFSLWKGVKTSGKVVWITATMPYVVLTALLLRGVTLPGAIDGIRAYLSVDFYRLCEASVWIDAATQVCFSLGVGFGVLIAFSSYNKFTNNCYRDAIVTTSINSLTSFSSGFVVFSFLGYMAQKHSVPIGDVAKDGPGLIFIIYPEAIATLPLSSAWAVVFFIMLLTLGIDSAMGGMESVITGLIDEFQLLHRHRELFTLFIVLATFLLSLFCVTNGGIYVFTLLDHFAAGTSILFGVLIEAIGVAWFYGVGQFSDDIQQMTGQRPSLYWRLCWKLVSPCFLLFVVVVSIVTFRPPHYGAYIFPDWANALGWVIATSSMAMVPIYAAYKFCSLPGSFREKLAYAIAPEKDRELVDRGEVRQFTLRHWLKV
Procedure details: live-cell confocal imaging of ASP+ accumulation in hDAT-transfected EM4 cells
Measured quantity: pIC50
Answers are plain numbers, as −log10 of the molar value.

Notebook: pull reported pIC50 for human dopamine transporter (hDAT) (Homo sapiens, UniProt Q01959), entry CCCCC/C=C\C/C=C\C/C=C\C/C=C\CCCC(=O)NCCO [AEA, anandamide] 5.49
